Relaxin-3 receptor 1 (Homo sapiens): recorded pEC50 for assorted molecules
Give only the number. pEC50 is defined as minus log10 of concentration in molar units.

Consider the following illustrative entries.
COc1cc(C)c2[nH]cc(/C=N/NC(=N)NCCCc3ccc(Cl)cc3)c2c1 : 5.78
COc1ccc2[nH]cc(/C(C)=N/NC(=N)NCCc3ccc(Cl)cc3)c2c1 : 5.11
COc1cc(C)c2[nH]cc(/C=N/NC(=N)NCCc3ccccn3)c2c1 : 6.07
N=C(NCCc1ccc(Cl)cc1)N/N=C/c1c[nH]c2ccc(F)cc12 : 5.87
COC(=O)c1ccc(CCNC(=N)N/N=C/c2c[nH]c3c(C)cc(OC)cc23)cc1 : 8.11

Any idea what pEC50 came out for COc1ccc2c(/C=N/NC(=N)NCCc3ccc(Cl)cc3)c[nH]c2c1 on Relaxin-3 receptor 1 (Homo sapiens)?
5.32

Any idea what pEC50 came out for N=C(NCCc1ccc(Cl)cc1)N/N=C/c1c[nH]c2c(F)cccc12 on Relaxin-3 receptor 1 (Homo sapiens)?
5.55

Any idea what pEC50 came out for Cc1cccc2c(/C=N/NC(=N)NCCc3ccc(Cl)cc3)c[nH]c12 on Relaxin-3 receptor 1 (Homo sapiens)?
6.19

###

Biological target: Relaxin-3 receptor 1 (Homo sapiens, UniProt Q9NSD7)
Sequence (Q9NSD7 whole entry): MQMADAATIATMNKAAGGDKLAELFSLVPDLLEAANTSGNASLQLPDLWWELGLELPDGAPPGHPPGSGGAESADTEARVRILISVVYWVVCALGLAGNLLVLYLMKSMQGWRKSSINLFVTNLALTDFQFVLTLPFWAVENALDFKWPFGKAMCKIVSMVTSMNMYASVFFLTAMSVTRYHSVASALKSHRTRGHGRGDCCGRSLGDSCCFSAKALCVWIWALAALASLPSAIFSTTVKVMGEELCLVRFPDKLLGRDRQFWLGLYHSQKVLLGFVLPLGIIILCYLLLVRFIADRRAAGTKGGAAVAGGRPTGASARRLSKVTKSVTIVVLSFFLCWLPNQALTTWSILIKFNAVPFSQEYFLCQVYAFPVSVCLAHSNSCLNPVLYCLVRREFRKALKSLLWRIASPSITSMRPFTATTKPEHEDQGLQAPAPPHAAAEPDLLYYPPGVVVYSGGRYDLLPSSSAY
quantity: pEC50
Give only the number. pEC50 is defined as minus log10 of concentration in molar units.

Consider the following illustrative entries.
N=C(NCCc1ccc(Cl)cc1)N/N=C/c1c[nH]c2ccc([N+](=O)[O-])cc12 : 6.50
CCc1cc(OC)cc2c(/C=N/NC(=N)NCCc3cccnc3)c[nH]c12 : 8.64
COc1cc(C)c2[nH]cc(/C=N/NC(=N)NCCc3ccc(Br)cc3)c2c1 : 7.16
N=C(NCCc1ccc(Cl)cc1)N/N=C/c1c[nH]c2ccccc12 : 5.16

So what does the record say about pEC50 for COc1cc(C)c2[nH]cc(/C=N/NC(=N)NCCc3ccccc3)c2c1 ?
6.65

So what does the record say about pEC50 for COc1ccc(CCNC(=N)N/N=C/c2c[nH]c3c(C)cc(OC)cc23)cc1 ?
7.25

So what does the record say about pEC50 for N#Cc1ccc2[nH]cc(/C=N/NC(=N)NCCc3ccc(Cl)cc3)c2c1 ?
6.60

So what does the record say about pEC50 for Cc1ccc2c(/C=N/NC(=N)NCCc3ccc(Cl)cc3)c[nH]c2c1 ?
5.13

So what does the record say about pEC50 for COc1cc(C)c2[nH]cc(/C=N/NC(=N)NCCc3ccc(N(C)C)cc3)c2c1 ?
7.01

So what does the record say about pEC50 for COc1cc(C)c2[nH]cc(/C=N/NC(=N)NCCc3ccc(Cl)cc3)c2c1 ?
7.13

So what does the record say about pEC50 for N=C(NCCc1ccc(Cl)cc1)N/N=C/c1c[nH]c2ccc(Cl)cc12 ?
5.55

So what does the record say about pEC50 for COc1cc(C)c2[nH]cc(/C=N/NC(=N)NCCc3ccc(C#N)cc3)c2c1 ?
7.88

So what does the record say about pEC50 for Cc1cc(C#N)cc2c(/C=N/NC(=N)NCCc3ccc(Cl)cc3)c[nH]c12 ?
7.08

So what does the record say about pEC50 for N=C(NCCc1ccc(Cl)cc1)N/N=C/c1c[nH]c2cc(F)ccc12 ?
5.46

So what does the record say about pEC50 for CCc1cc(OC)cc2c(/C=N/NC(=N)NCCc3ccc(F)cc3)c[nH]c12 ?
8.25

So what does the record say about pEC50 for COc1cc(C)c2[nH]cc(/C=N/NC(=N)NCCc3ccc(I)cc3)c2c1 ?
7.17

So what does the record say about pEC50 for N=C(NCCc1ccc(Cl)cc1)N/N=C/c1c[nH]c2cccc(F)c12 ?
5.49

So what does the record say about pEC50 for CCc1cc(OC)cc2c(/C=N/NC(=N)NCCc3ccc(Cl)cc3)c[nH]c12 ?
7.71

So what does the record say about pEC50 for COc1cc(C)c2[nH]cc(/C=N/NC(=N)NCCc3ccc([N+](=O)[O-])cc3)c2c1 ?
7.87

So what does the record say about pEC50 for COc1cc(C)c2[nH]cc(/C=N/NC(=N)Nc3ccc(Cl)cc3)c2c1 ?
5.51

So what does the record say about pEC50 for COc1cc(C)c2[nH]cc(/C=N/NC(=N)NCc3ccc(Cl)cc3)c2c1 ?
5.40
